These measurements were taken from patent US10508120B2.

Reported Kd values for the following compounds.
Biological target: human TYK2 (JH2domain-pseudokinase) (Homo sapiens (Human), UniProt P29597)
Sequence (P29597 556-888): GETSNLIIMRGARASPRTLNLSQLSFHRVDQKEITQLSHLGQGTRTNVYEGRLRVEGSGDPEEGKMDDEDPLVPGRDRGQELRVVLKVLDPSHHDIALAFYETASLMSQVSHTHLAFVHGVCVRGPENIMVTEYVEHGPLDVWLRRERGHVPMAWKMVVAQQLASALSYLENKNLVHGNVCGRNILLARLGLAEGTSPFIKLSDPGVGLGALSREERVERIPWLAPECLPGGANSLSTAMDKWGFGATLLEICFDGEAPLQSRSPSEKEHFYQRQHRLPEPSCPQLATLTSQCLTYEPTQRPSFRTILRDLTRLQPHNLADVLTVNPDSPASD
Assay: TYK2 JH2 Domain Binding Assay (KINOMEscan)
Protocol: Binding constants for compounds of the present invention against the JH2 domain were determined by the following protocol for a KINOMEscan® assay (DiscoveRx). […] The TYK2 (JH2domain-pseudokinase) fusion protein was labeled with a chimeric double-stranded DNA tag containing the NFkB binding site (5′-[…]-3′) fused to an amplicon for qPCR readout, which was added directly to the expression extract (the final concentration of DNA-tag in the binding reaction is 0.1 nM). […]
OUTCOME_MEASURE: Kd

>>> endpoint_value("CNc1cc(-c2cn(C(C)C)c3ncccc23)nc2c(C(N)=O)cnn12 [I-222]")
"200 to 1000 pM"
>>> endpoint_value("CNc1cc(Nc2cccn(C3CCCCC3)c2=O)nc2c(C(N)=O)cnn12 [I-12]")
"1000 to 10000 pM"
>>> endpoint_value("CNc1cc(Nc2cccnc2OC2CC2)nc2c(-c3cn(C(C)C)nn3)cnn12 [I-985]")
"200 to 1000 pM"
>>> endpoint_value("CNc1cc(Nc2cccn([C@H]3CC[C@@H]3O)c2=O)nc2c(C(=O)N[C@H]3CC[C@@H]3OC)cnn12 [I-1094]")
"< 200 pM"
>>> endpoint_value("CNc1cc(-c2nn(CCN3CCOCC3)c3ncccc23)nc2c(C(=O)NC3CC3)cnn12 [I-455]")
"1000 to 10000 pM"
>>> endpoint_value("CNc1cc(Nc2cccn([C@H]3CCCOC3)c2=O)nc2c(C(=O)N[C@@H]3COC[C@@H]3O)cnn12 [I-785]")
"< 200 pM"
>>> endpoint_value("CNc1cc(Nc2cccn(-c3ncco3)c2=O)nc2c(C(=O)NC3CC3)cnn12 [I-715]")
"< 200 pM"
>>> endpoint_value("CNc1cc(Nc2cccn(C3CCCCC3)c2=O)nc2c(C(=O)N[C@H]3C[C@H]3F)cnn12 [I-305]")
"< 200 pM"
>>> endpoint_value("CNc1cc(Nc2cccnc2OC2CC2)nc2c(C(=O)NC3CCC3)cnn12 [I-216]")
"< 200 pM"
>>> endpoint_value("CNc1cc(Nc2cccc3ocnc23)nc2c(C(=O)N[C@@H]3CC[C@@H]3O)cnn12 [I-661]")
"< 200 pM"
>>> endpoint_value("CNc1cc(-n2cc(N3CCCC3)c3ncccc32)nc2c(C(=O)N[C@@H]3C[C@@H]3F)cnn12 [I-553]")
"200 to 1000 pM"
>>> endpoint_value("CNc1cc(Nc2cccn(-c3nc(C)co3)c2=O)nc2c(C(=O)N[C@@H]3CC[C@@H]3O)cnn12 [I-654]")
"< 200 pM"
>>> endpoint_value("CNc1cc(Nc2cccnc2O[C@H]2CC[C@H](O)CC2)nc2c(C(=O)NC3CC3)cnn12 [I-231]")
"200 to 1000 pM"
>>> endpoint_value("NC(=O)c1cnn2c(N)cc(Nc3cccc(N4CCCC4)c3Cl)nc12 [I-23]")
"1000 to 10000 pM"
>>> endpoint_value("CNc1cc(Nc2cccn(C3CC(F)(F)C3)c2=O)nc2c(C(=O)N[C@H]3CC[C@@H]3O)cnn12 [I-1199]")
"200 to 1000 pM"
>>> endpoint_value("CNc1cc(Nc2cccnc2OC)nc2c(C(=O)N[C@H]3C[C@@H]3O)cnn12 [I-438]")
"< 200 pM"
>>> endpoint_value("CNc1cc(Nc2cccnc2OC)nc2c(C(=O)N[C@@H]3COC[C@@H]3O)cnn12 [I-519]")
"< 200 pM"
>>> endpoint_value("CNc1cc(Nc2cccn([C@H]3CCCOC3)c2=O)nc2c(C(=O)N[C@@H]3CCC[C@@](C)(OC)C3)cnn12 [I-1237]")
"> 10000 pM"
>>> endpoint_value("CNc1cc(Nc2cc(Cl)cn(C3CCOCC3)c2=O)nc2c(C(=O)N[C@@H]3CC[C@@H]3O)cnn12 [I-1069]")
"200 to 1000 pM"
>>> endpoint_value("CNc1cc(Nc2cccn([C@H]3CCCN(CCC#N)C3)c2=O)nc2c(C(=O)NC3CC3)cnn12 [I-1347]")
"1000 to 10000 pM"
>>> endpoint_value("CNc1cc(Nc2cccn([C@H]3CC[C@]4(CCCO4)CC3)c2=O)nc2c(C(=O)NC3CC3)cnn12 [I-1109]")
"< 200 pM"
>>> endpoint_value("NC(=O)c1cnn2c(N)cc(Nc3cccn(-c4ccon4)c3=O)nc12 [I-57]")
"200 to 1000 pM"
>>> endpoint_value("CNc1cc(Nc2cccnc2OC)nc2c(C(=O)N[C@@H]3CC[C@]3(C)O)cnn12 [I-1016]")
"1000 to 10000 pM"
>>> endpoint_value("CNc1cc(Nc2cc(C)cn(-c3cnn(C)c3)c2=O)nc2c(C(=O)NC3CCC3)cnn12 [I-234]")
"< 200 pM"
>>> endpoint_value("CNc1cc(Nc2cccn([C@H]3CCC[C@@H](OC)C3)c2=O)nc2c(C(=O)NC3CC3)cnn12 [I-622]")
"200 to 1000 pM"
>>> endpoint_value("CNc1cc(Nc2cccn(-c3ccn(C)n3)c2=O)nc2c(C(=O)NC3CC3)cnn12 [I-294]")
"200 to 1000 pM"
>>> endpoint_value("CNc1cc(Nc2cccn(C3CC4(COC4)C3)c2=O)nc2c(C(=O)N[C@H]3CC[C@H]3O)cnn12 [I-763]")
"< 200 pM"
>>> endpoint_value("CC(C)Oc1ncccc1Nc1cc(N)n2ncc(C(N)=O)c2n1 [I-77]")
"200 to 1000 pM"
>>> endpoint_value("CNc1cc(Nc2cc(F)cnc2OC2CC2)nc2c(C(=O)NC3CCC3)cnn12 [I-276]")
"< 200 pM"
>>> endpoint_value("CNc1cc(Nc2cccc([C@H]3CCCCO3)n2)nc2c(C(=O)N[C@@H]3CC[C@@H]3O)cnn12 [I-611]")
"< 200 pM"
>>> endpoint_value("CNc1cc(Nc2cccn(-c3cnc(C(=O)N(C)C)cn3)c2=O)nc2c(C(=O)NC3CCC3)cnn12 [I-122]")
"< 200 pM"
>>> endpoint_value("CNc1cc(-c2cn(CCN3CCOCC3)c3ncccc23)nc2c(C(=O)N[C@H]3C[C@H]3F)cnn12 [I-583]")
"< 200 pM"
>>> endpoint_value("CNc1cc(Nc2cccn(C3CCOCC3)c2=O)nc2c(C(=O)N[C@@H]3COC[C@@H]3O)cnn12 [I-674]")
"200 to 1000 pM"
